- test_name: Human intestinal absorption in po dosed human
- test_conditions: in vivo
value_type: Fa (%)

compound	value_type	uom	numeric_result
CCCC(=O)Nc1ccc(OCC(O)CNC(C)C)c(C(C)=O)c1 (stereo not drawn)	Fa	%	80
CC(=O)OCC(CCn1cnc2cnc(N)nc21)COC(C)=O	Fa	%	77
O=CN(O)CCCP(=O)(O)O	Fa	%	30
N=C(N)NC(=O)c1nc(Cl)c(N)nc1N [AMILORIDE]	Fa	%	50
C[C@]12C=CC(=O)C=C1CC[C@@H]1[C@@H]2[C@@H](O)C[C@@]2(C)[C@H]1CC[C@]2(O)C(=O)CO	Fa	%	99
COc1cc([C@@H]2c3cc4c(cc3[C@@H](O[C@@H]3O[C@@H]5CO[C@@H](C)O[C@H]5[C@H](O)[C@H]3O)[C@H]3COC(=O)[C@H]23)OCO4)cc(OC)c1O [ETOPOSIDE]	Fa	%	50
CC(C(=O)O)c1cccc(C(=O)c2ccccc2)c1 (stereo not drawn)	Fa	%	92
Clc1cccc(Cl)c1N=C1NCCN1	Fa	%	95
Oc1ccc(C(O)C2CCCCN2)cc1O (stereo not drawn)	Fa	%	48
COc1cc2nc(N3CCN(C(=O)C4CCCO4)CC3)nc(N)c2cc1OC (stereo not drawn)	Fa	%	90
COc1cc(N)c(Cl)cc1C(=O)NC1CCN(CCCOc2ccc(F)cc2)CC1OC (stereo not drawn) [CISAPRIDE]	Fa	%	100
CN(CCCCCCN(C)C(=O)Oc1ccc[n+](C)c1)C(=O)Oc1ccc[n+](C)c1.[Br-].[Br-] [DISTIGMINE BROMIDE]	Fa	%	8
Cc1nccn1CC1CCc2c(c3ccccc3n2C)C1=O (stereo not drawn)	Fa	%	100
CC[C@H](C)C(=O)O[C@H]1C[C@H](O)C=C2C=C[C@H](C)[C@H](CC[C@@H](O)C[C@@H](O)CC(=O)O)[C@H]21	Fa	%	34
CCCC(CCC)C(=O)[O-].[Na+] [VALPROATE SODIUM]	Fa	%	100
Cc1c(OCC(F)(F)F)ccnc1C[S+]([O-])c1nc2ccccc2[nH]1 (stereo not drawn)	Fa	%	85
CCOC(=O)C1=C(C)NC(C)=C(C(=O)OC)C1c1cccc([N+](=O)[O-])c1 (stereo not drawn)	Fa	%	88
Cc1cc(NC(=O)C2=C(O)c3ccccc3S(=O)(=O)N2C)no1	Fa	%	100
